Test: Volume of distribution in iv dosed rat
Type: ADME, organism-based
Conditions: in vivo, read-out: Vdss
assayReadout: Vd (L/kg)

{"inputSmiles": "C[C@H](Cc1cccc(CC(=O)NCc2ccc(Cl)c(Cl)c2)c1)NC[C@H](O)c1ccc(O)c(CO)c1", "assayReadout": "Vd", "obsValue": 16.6}
{"inputSmiles": "OCc1cc([C@@H](O)CNCCCCCCOCCCCc2ccccc2)ccc1O", "assayReadout": "Vd", "obsValue": 16.6}

----------
Biological target: Beta-2 adrenergic receptor (Cavia porcellus) (UniProt Q8K4Z4)
Sequence (Q8K4Z4 whole entry, looked up): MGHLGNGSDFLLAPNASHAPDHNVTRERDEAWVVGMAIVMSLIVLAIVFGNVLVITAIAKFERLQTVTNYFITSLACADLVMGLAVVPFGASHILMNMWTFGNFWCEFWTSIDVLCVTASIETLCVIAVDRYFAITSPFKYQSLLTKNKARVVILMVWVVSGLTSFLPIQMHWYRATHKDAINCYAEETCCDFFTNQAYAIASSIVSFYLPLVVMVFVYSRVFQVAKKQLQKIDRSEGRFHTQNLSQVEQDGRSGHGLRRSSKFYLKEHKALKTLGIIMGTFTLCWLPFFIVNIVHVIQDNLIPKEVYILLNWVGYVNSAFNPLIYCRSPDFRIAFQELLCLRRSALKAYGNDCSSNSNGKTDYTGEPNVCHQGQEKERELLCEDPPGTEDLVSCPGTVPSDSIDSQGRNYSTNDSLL
Experiment: Effect on guinea pig trachea model assessed as duration of muscle tone
Format: functional, tissue-based
Conditions: Muscle tissue
assayReadout: TIME (h)

Study these solved cases before continuing.
{"inputSmiles": "C[C@H](Cc1cccc(CC(=O)NCc2cc(C(F)(F)F)ccc2F)c1)NC[C@H](O)c1ccc(O)c(CO)c1", "TIME [h]": 6.6}
{"inputSmiles": "C[C@H](Cc1cccc(CC(=O)NC2Cc3ccccc3C2)c1)NC[C@H](O)c1ccc(O)c(CO)c1", "TIME [h]": 5.4}
{"inputSmiles": "Cc1ccc(CNC(=O)Cc2cccc(C[C@@H](C)NC[C@H](O)c3ccc(O)c(CO)c3)c2)cc1C", "TIME [h]": 4.6}
{"inputSmiles": "C[C@H](Cc1cccc(CC(=O)NCc2ccc(OC(F)(F)F)cc2)c1)NC[C@H](O)c1ccc(O)c(CO)c1", "TIME [h]": 8.1}
{"inputSmiles": "C[C@H](Cc1cccc(CC(=O)NCc2cc(Cl)cc(Cl)c2)c1)NC[C@H](O)c1ccc(O)c(CO)c1", "TIME [h]": 7.2}

(a) C[C@H](Cc1cccc(CC(=O)NCc2c(F)cccc2Cl)c1)NC[C@H](O)c1ccc(O)c(CO)c1
(b) COc1cccc(OC)c1CNC(=O)Cc1cccc(C[C@@H](C)NC[C@H](O)c2ccc(O)c(CO)c2)c1
(c) C[C@H](Cc1cccc(CC(=O)NCc2ccc(Cl)c(Cl)c2)c1)NC[C@H](O)c1ccc(O)c(CO)c1
Ask | Please rank these compounds by TIME in descending order. Please list the labels in the order you were asked to rank them.
Reply | c, a, b
